Test system: Bacillus subtilis
Test: Antibacterial activity against Bacillus subtilis MTCC 441 by broth dilution method
Format: functional
property.measured: MIC (µg/mL)

compound | measured
CC1(C)S[C@@H]2[C@H](NC(=O)Cc3ccccc3)C(=O)N2[C@H]1C(=O)O [PENICILLIN G] | 1.53
C#CCn1c(-c2ccccc2)nc2ccccc2c1=O | 37.5
O=c1c2ccccc2nc(-c2c(F)cccc2F)n1Cc1cn(CCC(F)(F)C(F)(F)C(F)(F)C(F)(F)C(F)(F)C(F)(F)F)nn1 | 150
O=c1c2ccccc2nc(-c2ccccc2)n1Cc1cn(CCC(F)(F)C(F)(F)C(F)(F)C(F)(F)C(F)(F)C(F)(F)C(F)(F)C(F)(F)F)nn1 | 150
O=c1c2ccccc2nc(C(F)(F)F)n1Cc1cn(CCC(F)(F)C(F)(F)C(F)(F)C(F)(F)C(F)(F)C(F)(F)F)nn1 | 150
FC(F)(F)c1nc(OCc2cn(CCC(F)(F)C(F)(F)C(F)(F)C(F)(F)C(F)(F)C(F)(F)F)nn2)c2ccccc2n1 | 18.8
FC(F)(F)C(F)(F)C(F)(F)C(F)(F)C(F)(F)C(F)(F)CCn1cc(COc2nc(-c3ccccc3)nc3ccccc23)nn1 | 150
O=c1c2ccccc2nc(C(F)(F)F)n1Cc1cn(CCC(F)(F)C(F)(F)C(F)(F)C(F)(F)C(F)(F)C(F)(F)C(F)(F)C(F)(F)F)nn1 | 75
C#CCOc1nc(-c2ccccc2)nc2ccccc12 | 150
O=c1c2ccccc2nc(-c2ccccc2)n1Cc1cn(CCC(F)(F)C(F)(F)C(F)(F)C(F)(F)C(F)(F)C(F)(F)F)nn1 | 150
CN[C@@H]1[C@H](O[C@H]2[C@H](O[C@H]3[C@H](O)[C@@H](O)[C@H](N=C(N)N)[C@@H](O)[C@@H]3N=C(N)N)O[C@@H](C)[C@]2(O)C=O)O[C@@H](CO)[C@H](O)[C@H]1O [STREPTOMYCIN] | 6.25
O=c1c2ccccc2nc(-c2c(F)cccc2F)n1Cc1cn(CCC(F)(F)C(F)(F)C(F)(F)C(F)(F)C(F)(F)C(F)(F)C(F)(F)C(F)(F)F)nn1 | 150
FC(F)(F)C(F)(F)C(F)(F)C(F)(F)C(F)(F)C(F)(F)C(F)(F)C(F)(F)CCn1cc(COc2nc(-c3ccccc3)nc3ccccc23)nn1 | 150
FC(F)(F)C(F)(F)C(F)(F)C(F)(F)C(F)(F)C(F)(F)C(F)(F)C(F)(F)CCn1nncc1COc1nc(-c2ccccc2)nc2ccccc12 | 37.5
FC(F)(F)c1nc(OCc2cn(CCC(F)(F)C(F)(F)C(F)(F)C(F)(F)C(F)(F)C(F)(F)C(F)(F)C(F)(F)F)nn2)c2ccccc2n1 | 150
